Target: UniProt:P30542
Sequence (P30542 whole entry): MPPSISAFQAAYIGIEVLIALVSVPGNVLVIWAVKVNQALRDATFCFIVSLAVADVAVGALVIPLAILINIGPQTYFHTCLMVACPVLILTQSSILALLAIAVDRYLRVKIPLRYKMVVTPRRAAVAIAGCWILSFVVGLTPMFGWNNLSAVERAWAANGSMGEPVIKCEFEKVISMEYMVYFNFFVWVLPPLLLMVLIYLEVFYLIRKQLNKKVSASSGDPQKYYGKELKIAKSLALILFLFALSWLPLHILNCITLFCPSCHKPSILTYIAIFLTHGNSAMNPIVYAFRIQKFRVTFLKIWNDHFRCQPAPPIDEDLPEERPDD
Type: cell membranes, CHO, Membrane
Settings: read-out: IC50
reported_metric: IC50 (µM)
Write the value in µM as a bare number.

Enquiry: Look up IC50: "CN(CCOc1ccc(C[C@H](Nc2ccccc2C(=O)c2ccccc2)C(=O)O)cc1)c1ccccn1"
Return: 15

* * *

target: Aldo-keto reductase family 1 member B1 (Rattus norvegicus, UniProt P07943); test: biochemical; assay type: tissue-based, Lens of camera-type eye; settings: read-out: IC50; further: in other assays of this panel Not Active means under 50% inhibition at 10 µM;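 further: inhibition of aldose reductase enzyme activity, measured with DL-glyceraldehyde as the substrate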
For each entry below, report its pIC50 value.
Give only the number. pIC50 is defined as minus log10 of concentration in molar units.

Enquiry: Look up pIC50: "O=C(OC[C@H]1O[C@@H](OC(=O)c2cc(O)c(O)c(OC(=O)c3cc(O)c(O)c(O)c3)c2)[C@H](OC(=O)c2cc(O)c(O)c(OC(=O)c3cc(O)c(O)c(O)c3)c2)[C@@H](OC(=O)c2cc(O)c(O)c(OC(=O)c3cc(O)c(O)c(O)c3)c2)[C@@H]1OC(=O)c1cc(O)c(O)c(OC(=O)c2cc(O)c(O)c(O)c2)c1)c1cc(O)c(O)c(OC(=O)c2cc(O)c(O)c(O)c2)c1"
Return: 6.46

Enquiry: Look up pIC50: "O=C(O)COC(=O)Cc1ccccc1Nc1c(Cl)cccc1Cl"
Return: 5.89

Enquiry: Look up pIC50: O=C(c1ccccc1)c1ccc2n1CCC2C(=O)O (centres undefined)
Return: 5.21

Enquiry: Look up pIC50: "O=C(O)c1cc(/N=N/c2ccc(S(=O)(=O)Nc3ccccn3)cc2)ccc1O"
Return: 4.77

* * *

experiment: DRUGMATRIX: beta-Lactamase enzyme inhibition (substrate: Nitrocefin); design: species or system Bacillus cereus; conditions: Not Active = under 50% inhibition at 10 µM; read-out: IC50
reported_metric: IC50 (µM)
Write the value in µM as a bare number.

Enquiry: Look up IC50: "COC(=O)Nc1nc2ccc(Sc3ccccc3)cc2[nH]1"
Return: 5.99

* * *

assay: DRUGMATRIX: Glutamate, NMDA, Agonism radioligand binding (ligand: [3H] CGP-39653); format: cell membranes, Rattus norvegicus, Wistar, Cerebral cortex, Membrane; settings: Not Active = under 50% inhibition at 10 µM
reported_metric: IC50

As a guide, the following entries are already answered.
{"compound": "O=[As][O-].[Na+] [SODIUM ARSENITE]", "IC50": "Not Active"}
{"compound": "C[C@@H]1[C@H](O)[C@@H](C)/C=C/C=C/C=C/C=C/C=C/C=C/C=C/[C@H](O[C@@H]2O[C@H](C)[C@@H](O)[C@H](N)[C@@H]2O)C[C@@H]2O[C@](O)(C[C@@H](O)C[C@@H](O)[C@H](O)CC[C@@H](O)C[C@@H](O)CC(=O)O[C@H]1C)C[C@H](O)[C@H]2C(=O)O [AMPHOTERICIN B]", "IC50": "Not Active"}
{"compound": "CC(=O)[C@]1(O)Cc2c(O)c3c(c(O)c2[C@@H](O[C@H]2C[C@H](N)[C@H](O)[C@H](C)O2)C1)C(=O)c1ccccc1C3=O [IDARUBICIN]", "IC50": "Not Active"}
{"compound": "OC[C@@H](O)[C@@H](O)[C@H](O)[C@H](O)CO [MANNITOL]", "IC50": "Not Active"}
{"compound": "CC(C)(C#N)c1cc(Cn2cncn2)cc(C(C)(C)C#N)c1 [ANASTROZOLE]", "IC50": "Not Active"}

Enquiry: Look up IC50: O=C(O)c1ccccc1 [BENZOIC ACID]
Return: Not Active

Enquiry: Look up IC50: NC(N)=Nc1nc(CSCCC(N)=NS(N)(=O)=O)cs1 [FAMOTIDINE]
Return: Not Active
